Cited source for all entries: PubChem BioAssay (NCI)

Tested on: PC-3 prostate
Test: NCI-60 one-dose screen, 48 h
Conditions: 10 µM unless noted
Description: Growth inhibition of the PC-3 human tumor cell line is measured as a screen for anti-cancer activity. Cells are grown in 96 well plates and exposed to the test compound for 48 hours. Compounds are tested at a single concentration, which is 10^-5 M for most compounds. The reported endpoint is percent growth (GI% or GIPRCNT), where numbers from 0 - 100% represent growth inhibition, and numbers from -100% - 0 represent cell death. For example, a value of 40 represents 60% growth inhibition. […]
This is part of a sample that, as a whole, favours compounds with a hit. Of some 83,000 tested, about 20% had one in any assay. Active and inactive are the calls of the source. The calls were made as follows: active = growth percent below 10; inactive = the rest.
Classes used: 1 = active, -1 = inactive

COMPOUND	TESTED ON	GROUP
Cc1cc(-c2ccc(Cl)cc2)n(Cc2nnc(SCC(=O)Nc3ccc(S(N)(=O)=O)cc3)n2-c2ccc([N+](=O)[O-])cc2)n1	PC-3 prostate	-1
C=C(C)[C@@H]1CC[C@]2(COC)CC[C@]3(C)[C@H](CC[C@@H]4[C@@]5(C)CCCNC(C)(C)[C@@H]5CC[C@]43C)[C@@H]12	PC-3 prostate	-1
Cc1cc(C)c2sc(=O)n(Cc3nnc(SCCC(=O)O)o3)c2n1	PC-3 prostate	-1
O=S(=O)(Nc1ccc2c(c1)OCO2)c1ccc(-c2cnc(C3CC3)o2)cc1	PC-3 prostate	-1
Cc1ccc2c(c1)Oc1nc(N)c(C#N)c(N)c1C2Sc1ccc(F)cc1 (configuration not stated)	PC-3 prostate	1
CC(=O)N(C)C1CCc2c(sc(NC(=O)c3ccc(C(C)(C)C)cc3)c2C(N)=O)C1 (configuration not stated)	PC-3 prostate	-1
O=C(c1ccc(O)c(C(=O)N2Cc3ccc(OCCC[P+](c4ccccc4)(c4ccccc4)c4ccccc4)cc3C2)c1)N1Cc2cccc(F)c2C1	PC-3 prostate	-1
O=S(=O)(NCCCNc1nccc(-c2[nH]c(-c3ccccc3)nc2-c2ccc(Cl)c(O)c2)n1)c1cccc2ccccc12	PC-3 prostate	-1
C[C@@H]1C[C@H]2C(=O)O[C@@H](C)C(NC(=O)[C@H](Cc3cc(F)cc(F)c3)NC(=O)Nc3ccc(Cl)cc3F)C(=O)N3CCC[C@H]3C(=O)N3CCCC[C@H]3C(=O)N[C@@H](CO)C(=O)N2C1 (some centres not stated)	PC-3 prostate	-1
COc1cc(/C=N/NC(=O)c2cn(C3CC3)c3c(OC)c(N4CC5CCCNC5C4)c(F)cc3c2=O)ccc1O (configuration not stated)	PC-3 prostate	-1
CC(C)(C)CC(C)(C)n1nnnc1C(Nc1nccs1)c1cc2cccc3ccc4cccc1c4c32 (configuration not stated)	PC-3 prostate	-1
O=C(NNc1nc2cc(F)ccc2n2cccc12)c1ccncn1	PC-3 prostate	-1
NS(=O)(=O)c1ccc(Nc2nc(N/N=C/c3ccccn3)nc(Nc3ccccc3)n2)cc1	PC-3 prostate	1
CN1CCN(c2ccc(/C=N/Nc3nc4ccccc4c(=O)n3-c3ccccc3)cc2)CC1	PC-3 prostate	-1
CCCCCc1ccc(S(=O)(=O)Nc2cc(-c3csc(NC(=O)CN4CCN(CCO)CC4)n3)ccc2OC)cc1	PC-3 prostate	-1
O=C(O)c1ccc(-n2cc(CNc3cc(F)c(F)c(F)c3)c(-c3ccc(F)cc3)n2)cc1	PC-3 prostate	-1
COc1cc(OC)c(S(N)(=O)=O)cc1C(=O)/C=C/c1ccc(C)cc1	PC-3 prostate	-1
